System: KG1 leukemia cell line
experimental protocol: MTS assay (CellTiter96 Aqueous One solution proliferation assay), KG1
Format: cell-based
assay conditions: Table IA, read-out: IC50 ± standard deviation
readout kind: IC50 (nM)
Enter your answer as a number in nM; do not include the unit.

Per the reported KG1 leukemia cell line data, C[C@H](NP(=O)(OC[C@H]1O[C@@H](n2cnc3c(Cl)nc(N)nc32)C[C@@H]1O)Oc1ccccc1)C(=O)OCc1ccccc1 (stereo partly shown) [CPF194] has IC50 of 2640

Record C[C@H](NP(=O)(OC[C@H]1O[C@@H](n2cnc3c(N)nc(Cl)nc32)C[C@@H]1O)Oc1cccc2ccccc12)C(=O)OCc1ccccc1 (stereo partly shown) [CPF211] has KG1 leukemia cell line IC50 equal to 2630

# lookup: C[C@H](NP(=O)(OC[C@H]1O[C@@H](n2cnc3c(N)nc(Cl)nc32)C[C@@H]1O)Oc1ccc(Cl)c2ccccc12)C(=O)OCc1ccccc1 (stereo partly shown) [CPF218] on KG1 leukemia cell line, IC50 = 1560

Bench note, KG1 leukemia cell line: C[C@H](NP(=O)(OC[C@H]1O[C@@H](n2cnc3c(N)nc(Cl)nc32)C[C@@H]1O)Oc1cccc2ccccc12)C(=O)OCc1ccccc1 (stereo partly shown) [CPF212] , IC50 reads 1540

# C[C@H](NP(=O)(OC[C@H]1O[C@@H](n2cnc3c(N)nc(Cl)nc32)C[C@@H]1O)Oc1cccc2ccccc12)C(=O)OCc1ccccc1 (stereo partly shown) [CPF210] with KG1 leukemia cell line: IC50 is 1800

Let me check: C[C@H](NP(=O)(OC[C@H]1O[C@@H](n2cnc3c(N)nc(Cl)nc32)C[C@@H]1O)Oc1ccccc1)C(=O)OCc1ccccc1 (stereo partly shown) [CPF204] , system KG1 leukemia cell line, measured IC50 is 670

Note to self: IC50 of Nc1nc(Cl)nc2c1ncn2[C@H]1C[C@H](O)[C@@H](CO)O1 [Cladribine, reference compound] with KG1 leukemia cell line was 5480
